Here the recorded inhibition at 10 µM is given for each entry.
# Tested on: Plasmodium berghei
# assay-procedure: Antimalarial activity against chloroquine-sensitive Plasmodium berghei ANKA infected BALB/c mice (Mus musculus) erythrocytes at 10 uM after 18 hrs as reduced hemoglobin hydrolysis
# Type: functional
Answer in %, number only, no unit symbol.

COc1cccc(N2c3ccc(Cl)cc3S(=O)(=O)c3c(N)n[nH]c32)c1; 0
COc1ccc(N2c3cc(Cl)ccc3S(=O)(=O)c3c(N)nc(N)nc32)cc1; 40.9

Dear colleague, please send me the reported inhibition at 10 µM for Cc1ccc(N2c3ccc(Cl)cc3S(=O)(=O)c3c(N)n[nH]c32)cc1 when you can. 0

Dear colleague, please send me the reported inhibition at 10 µM for Nc1nc(N)c2c(n1)N(c1ccc(Cl)cc1)c1ccc(Cl)cc1S2(=O)=O when you can. 0

Dear colleague, please send me the reported inhibition at 10 µM for Cc1ccc(C)c(N2c3cc(Cl)ccc3S(=O)(=O)c3c(N)n[nH]c32)c1 when you can. 69.4

Dear colleague, please send me the reported inhibition at 10 µM for Nc1nc(N)c2c(n1)N(c1cccc(Cl)c1)c1ccc(Cl)cc1S2(=O)=O when you can. 0

Dear colleague, please send me the reported inhibition at 10 µM for Nc1n[nH]c2c1S(=O)(=O)c1ccc(Cl)cc1N2c1ccccc1 when you can. 76.4

Dear colleague, please send me the reported inhibition at 10 µM for Nc1nc(N)c2c(n1)N(c1ccccc1)c1cc(Cl)ccc1S2(=O)=O when you can. 83.7

Dear colleague, please send me the reported inhibition at 10 µM for Cc1ccc(C)c(N2c3cc(Cl)ccc3S(=O)(=O)c3c(N)nc(N)nc32)c1 when you can. 64.6

Dear colleague, please send me the reported inhibition at 10 µM for Nc1n[nH]c2c1S(=O)(=O)c1ccc(Cl)cc1N2c1ccc(Cl)cc1 when you can. 55.8

Dear colleague, please send me the reported inhibition at 10 µM for Nc1nc(N)c2c(n1)N(c1ccccc1)c1ccc(Cl)cc1S2(=O)=O when you can. 0

Dear colleague, please send me the reported inhibition at 10 µM for Cc1ccccc1N1c2cc(Cl)ccc2S(=O)(=O)c2c(N)nc(N)nc21 when you can. 72.6
